From: patent US9233109B2

Target: α4(2)β2(2)α5 nAChR (Homo sapiens, UniProt P17787+P30532+P43681)
Construct: expressed in transfected cells; host or cells: Xenopus laevis oocytes injected with cRNA
Assay: Bath application of test compound: inhibition of ACh-evoked responses in Xenopus oocytes
Type: cell-based
Measured endpoint: pIC50
The value called pIC50 is obtained by taking minus log10 of the concentration in mol/L.

Prompt: May I ask what pIC50 has been recorded for O=c1cccc2n1C[C@@H]1CNC[C@H]2C1 ?
Response: 8.49

* * *

Molecular target: α7 nAChR (Homo sapiens, UniProt P36544)
Construct: expressed in transfected cells; host or cells: Xenopus laevis oocytes injected with cRNA
Sequence (P36544 23-502): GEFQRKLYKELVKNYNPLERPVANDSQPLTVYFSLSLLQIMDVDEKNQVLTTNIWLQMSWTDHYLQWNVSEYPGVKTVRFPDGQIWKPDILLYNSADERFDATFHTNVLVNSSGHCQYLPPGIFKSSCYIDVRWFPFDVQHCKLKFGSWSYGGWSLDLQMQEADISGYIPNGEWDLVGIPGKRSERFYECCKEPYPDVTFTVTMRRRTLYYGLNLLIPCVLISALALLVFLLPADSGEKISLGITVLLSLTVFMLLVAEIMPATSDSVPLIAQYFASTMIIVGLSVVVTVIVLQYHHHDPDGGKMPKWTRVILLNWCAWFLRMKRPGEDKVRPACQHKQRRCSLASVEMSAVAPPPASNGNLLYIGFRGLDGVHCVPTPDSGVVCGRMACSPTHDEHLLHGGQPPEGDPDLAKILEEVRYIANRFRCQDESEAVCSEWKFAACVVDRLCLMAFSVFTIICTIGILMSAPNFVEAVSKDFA
Test: Acute co-application of ACh and S 24795, model fit of net charge responses in oocytes
Type: cell-based
Details: noncompetitive inhibition factor; read-out: Inhibition IC50 of the partial agonist (best fit)
Measured endpoint: IC50 (µM)
Dear colleague, please return just the value in µM, with no unit written.

Prompt: Any idea what IC50 was measured for C[n+]1ccccc1CC(=O)c1ccc(Br)cc1 ?
Response: 1000

* * *

Target: LS α4β2 (α4(3)β2(2)) nAChR (Homo sapiens, UniProt P17787+P43681)
Construct: expressed in transfected cells; host or cells: Xenopus laevis oocytes injected with cRNA
Sequence (P17787 26-502): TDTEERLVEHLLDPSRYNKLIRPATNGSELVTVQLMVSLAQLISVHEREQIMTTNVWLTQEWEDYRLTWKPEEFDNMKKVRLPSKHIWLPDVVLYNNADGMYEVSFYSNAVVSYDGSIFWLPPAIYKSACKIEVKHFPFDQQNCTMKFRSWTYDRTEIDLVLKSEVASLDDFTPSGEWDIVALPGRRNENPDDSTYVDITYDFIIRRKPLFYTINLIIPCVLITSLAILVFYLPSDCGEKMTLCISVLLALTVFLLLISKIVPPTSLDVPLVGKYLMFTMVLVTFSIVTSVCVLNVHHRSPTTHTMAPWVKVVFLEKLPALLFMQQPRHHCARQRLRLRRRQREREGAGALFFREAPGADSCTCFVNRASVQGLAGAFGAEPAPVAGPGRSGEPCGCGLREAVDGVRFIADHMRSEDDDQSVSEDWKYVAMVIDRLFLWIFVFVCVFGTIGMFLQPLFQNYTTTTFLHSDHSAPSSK
Sequence (P43681 29-627 limits assumed): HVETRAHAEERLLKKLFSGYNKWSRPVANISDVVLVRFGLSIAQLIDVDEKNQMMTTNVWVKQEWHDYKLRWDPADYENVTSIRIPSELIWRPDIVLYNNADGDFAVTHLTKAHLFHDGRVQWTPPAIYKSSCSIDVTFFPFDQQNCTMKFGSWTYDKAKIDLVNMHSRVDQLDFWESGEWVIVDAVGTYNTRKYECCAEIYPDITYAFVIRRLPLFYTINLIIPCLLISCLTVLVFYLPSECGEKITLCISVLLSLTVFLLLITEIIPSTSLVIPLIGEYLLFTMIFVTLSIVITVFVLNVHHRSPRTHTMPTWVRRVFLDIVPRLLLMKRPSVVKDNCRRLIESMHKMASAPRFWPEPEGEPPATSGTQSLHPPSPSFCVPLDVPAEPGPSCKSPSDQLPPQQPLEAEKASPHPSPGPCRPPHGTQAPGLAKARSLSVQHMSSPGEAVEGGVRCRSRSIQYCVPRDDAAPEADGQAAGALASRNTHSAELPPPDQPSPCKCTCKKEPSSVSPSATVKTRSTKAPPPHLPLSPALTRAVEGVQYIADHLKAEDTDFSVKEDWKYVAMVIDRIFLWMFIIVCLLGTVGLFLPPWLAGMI
Sequence (P43681 29-627 limits assumed): as above
Experiment: Bath application of test compound: inhibition of ACh-evoked peak currents in Xenopus oocytes
Assay type: cell-based
Details: IC50, inhibition of ACh-evoked responses by prolonged bath application
Measured endpoint: IC50 (nM)
Kindly provide the numeric value in nM only, without the unit symbol.

Prompt: I am curious: what IC50 value has been reported for O=c1cccc2n1C[C@@H]1CNC[C@H]2C1 ?
Response: 85

* * *

Target: LS α4β2 (α4(3)β2(2)) nAChR (Homo sapiens, UniProt P17787+P43681)
Construct: expressed in transfected cells; host or cells: Xenopus laevis oocytes injected with cRNA
Assay: Bath application of test compound: inhibition of ACh-evoked peak currents in Xenopus oocytes
Type: cell-based
Conditions: IC50 for the inhibition of ACh evoked responses by bath applications of agonists and partial agonists
Measured endpoint: IC50 (nM)
Answer in nM, number only, no unit symbol.

Prompt: Request the reported IC50 associated with O=c1cccc2n1C[C@@H]1CNC[C@H]2C1 [Cytisine, cytisine]
Response: 27

* * *

In this section, each of the compounds is paired with its reported IC50.
Biological target: α7 nAChR (Homo sapiens, UniProt P36544)
Construct: expressed in transfected cells; host or cells: Xenopus laevis oocytes injected with cRNA
Test: Bath application of test compound: modulation of ACh-evoked net charge responses in Xenopus oocytes
Type: cell-based
Details: IC50, inhibition of ACh-evoked responses by prolonged bath application
# number then unit; no other words

INSERT INTO results (chemical_smiles, obs_value) VALUES
  ('O=c1cccc2n1C[C@@H]1CNC[C@H]2C1', '0.3 µM');

Would you kindly look at the next entry?
Prompt: Which IC50 value is on record for C[N+](C)(C)CCO ?
Response: 6.7 µM
